Assay: Phase I pharmacokinetic clinical trial: TAD vs IVAD of cefazolin and metronidazole (TISF and serum)
Settings: human, in vivo, 600 mg, Cmax, Table 16B, Abdomen; serum; IVAD dose 600 mg
quantity: Cmax (ng/mL)

> print(dat)
                                   compound  quantity  experimental.result
1  Cc1ncc([N+](=O)[O-])n1CCO [Metronidazole]      Cmax                14000

###

Experiment: Phase I pharmacokinetic clinical trial: TAD vs IVAD of cefazolin and metronidazole (TISF and serum)
Conditions: human, in vivo, 500 mg, AUC, Table 15B, Abdomen; TISF; TAD; 413 mg/L; with cefazolin
quantity: AUC (µg·h/mL)

> print(dat)
                                   molecule  experimental.result
1  Cc1ncc([N+](=O)[O-])n1CCO [Metronidazole]                 1030

###

Test: Phase I pharmacokinetic clinical trial: TAD vs IVAD of cefazolin and metronidazole (TISF and serum)
Conditions: human, in vivo, Cmax, Table 16B, Abdomen; TISF; TAD + IVAD; 200 mg/L; TAD dose 400 mg, IVAD dose 200 mg
quantity: Cmax (µg/mL)

> print(dat)
                                   compound  value.units  experimental.result
1  Cc1ncc([N+](=O)[O-])n1CCO [Metronidazole]        µg/mL                  150

###

Test: Phase I pharmacokinetic clinical trial: TAD vs IVAD of cefazolin and metronidazole (TISF and serum)
Conditions: human, in vivo, 500 mg, Cmax, Table 15B, Abdomen; serum; IVAD; with cefazolin
quantity: Cmax (ng/mL)

> print(dat)
                  mol.smiles  value.units  experimental.result
1  Cc1ncc([N+](=O)[O-])n1CCO        ng/mL                14000

###

Assay: Phase I pharmacokinetic clinical trial: TAD vs IVAD of cefazolin and metronidazole (TISF and serum)
Conditions: human, in vivo, 500 mg, AUC, Table 15B, Abdomen; serum; TAD; 413 mg/L; with cefazolin
quantity: AUC (ng·h/mL)

> print(dat)
                  mol.smiles  experimental.result
1  Cc1ncc([N+](=O)[O-])n1CCO                81000

###

Test: Phase I pharmacokinetic clinical trial: TAD vs IVAD of cefazolin and metronidazole (TISF and serum)
Details: human, in vivo, 500 mg, AUC, Table 15B, Abdomen; serum; IVAD; with cefazolin
quantity: AUC (µg·h/mL)

> print(dat)
                  mol.smiles  experimental.result
1  Cc1ncc([N+](=O)[O-])n1CCO                  127

###

Assay: clinical
Settings: human, in vivo
# Tmax annotations
quantity: Tmax

> print(dat)
                                 mol.smiles  experimental.result
1                 Cc1ncc([N+](=O)[O-])n1CCO           10 to 12 h
2  Cc1nnc(SCC2=C(C(=O)O)N3C(=O)[C@@H](NC(=O)Cn4cnnn4)[C@H]3SC2)s1            8 to 12 h

###

Test: Phase I pharmacokinetic clinical trial: TAD vs IVAD of cefazolin and metronidazole (TISF and serum)
Settings: human, in vivo, 600 mg, Cmax, Table 16B, Abdomen; serum; TAD; 172 mg/L; TAD dose 600 mg
quantity: Cmax

> print(dat)
                  mol.smiles  quantity  experimental.result
1  Cc1ncc([N+](=O)[O-])n1CCO      Cmax           4800 ng/mL
